Reported melting point values for the following compounds.

- CN(C)C(=O)N(C)Cc1cccc2c1C(=O)N(C1CCC(=O)NC1=O)C2=O (stereo not given): 206 to 208 °C
- CC1c2ccccc2Nc2nccn21 (stereo not given): 171 to 172 °C
- COc1cc(OCC2CCCO2)ccc1C=O (stereo not given): 73.3 °C
- O=C(CCCCC1CCSS1)n1ccnc1 (stereo not given): 37 to 39 °C
- Cc1cc(C#CC2CC2)cc(C)c1Oc1ccc([N+](=O)[O-])c(Nc2ccc(C#N)cc2)n1: 188 to 192 °C

Entry CCOC(=O)C1Cc2ccc(C(=O)c3ccc(NC(C)=O)c(Cl)c3)cc2C1 (stereo not given) — recorded melting point = 126 to 127 °C

Entry `CCOC(=O)c1ccc2cc(N)ccn2c1=O` — recorded melting point = > 250 °C

Entry `CC(C)(C)c1cc(C(=O)c2ccoc2)cc2c1OCC2(C)C` — recorded melting point = 120 to 121 °C

Entry `CCOCCOCCOCC1(c2ccc(Oc3cncc4sc(-c5nnc(N)o5)cc34)cc2)CC1` — recorded melting point = 113 to 114 °C

Entry `Cc1cc2nc3ccccc3sc-2c(Cl)c1=O` — recorded melting point = 206 °C

----------
Reported melting point values for the following molecules.

Some solved entries appear below for comparison.
- CC(O)CNc1c([N+](=O)[O-])cnc2ccccc12 (centres undefined): 209 to 210 °C
- COc1cc(Nc2c(C#N)cnc3cc(Br)c(OC)cc23)c(Cl)cc1Cl: > 250 °C
- COC(=O)/C=C(\C)CSc1nc(N)cc(Cl)n1: 134 to 136 °C
- C=CN(Cc1ccccc1)C(=O)C(F)(F)C(F)(F)C(F)(F)C(F)(F)C(F)(F)C(F)F: 53 to 57 °C
- c1ccc(-c2cc3c(N4CCOCC4)nnc(N4CCOCC4)c3cn2)cc1: 186 to 188 °C
- CC(C)(C)OC(=O)N1CCC(OCc2ccccc2)C1CC(O)Cn1cnc2cccc(C(F)(F)F)c2c1=O (centres undefined): 224 °C

Entry COc1ccc(N2C(=O)N(c3cccc(C(N)=O)c3)c3nc(Nc4cccc(CCN5CCN(C)CC5)c4)ncc3C2C)cc1 (centres undefined) — recorded melting point = 243 to 251 °C

Entry CC(N)CC(=O)N(c1ccc(Nc2ccccc2)cc1)C(C)C (centres undefined) — recorded melting point = 145 to 151 °C

Entry CC1(C)C(C=C2C(C(F)(F)F)C2(F)F)C1C(=O)O (centres undefined) — recorded melting point = 45.7 °C

----------
Reported melting point values for the following molecules.

Entry `COc1cc(OC)nc(-c2ccc(C)cc2)n1` — recorded melting point = 61 to 62 °C

Entry `COc1cc2c(cc1OCCCN1CCC(c3noc4cc(F)ccc34)CC1)CCCC2=O` — recorded melting point = 129 to 131 °C

Entry c1ccc(C2C3=NCCN3CCc3ccccc32)cc1 (stereo unspecified) — recorded melting point = 122 to 123 °C

Entry COc1ccc2c(c1OCc1ccc(C(=O)O)cc1)CC(C(=O)O)N(C(=O)C(c1ccccc1)c1ccccc1)C2 (racemic) — recorded melting point = 190 to 192 °C

Entry O=S1(=O)NC(C2CCCCC2)Nc2ccc(S(=O)(=O)N3CCOCC3)cc21 (stereo unspecified) — recorded melting point = 262 to 264 °C

Entry `CCn1cc(C(=O)O)c(=O)c2cc(F)c(O)cc21` — recorded melting point = > 250 °C

Entry `FC(F)(F)c1cc(-c2ccc(Cl)c(Cl)c2)nc2c(-c3ccncc3)cnn12` — recorded melting point = 260 °C

Entry `O=c1[nH]c2cc([N+](=O)[O-])ccc2cc1P(=O)(O)O` — recorded melting point = > 300 °C

Entry CC(C)NCC(O)COc1cccc2nsnc12 (stereo unspecified) — recorded melting point = 100 to 102 °C

Entry `Nc1nc(OCOC(=O)C2CCCC2)ncc1F` — recorded melting point = 101 to 104 °C

Entry `COc1ccc(C=C(Br)Br)cc1OC(C)C` — recorded melting point = 67 to 69 °C
